Where do the numbers come from? From patent US9108984B2.

TEST TARGET: PI3Kδ (p110δ/p85α) (Homo sapiens (Human))
Sequence (O00329 whole entry): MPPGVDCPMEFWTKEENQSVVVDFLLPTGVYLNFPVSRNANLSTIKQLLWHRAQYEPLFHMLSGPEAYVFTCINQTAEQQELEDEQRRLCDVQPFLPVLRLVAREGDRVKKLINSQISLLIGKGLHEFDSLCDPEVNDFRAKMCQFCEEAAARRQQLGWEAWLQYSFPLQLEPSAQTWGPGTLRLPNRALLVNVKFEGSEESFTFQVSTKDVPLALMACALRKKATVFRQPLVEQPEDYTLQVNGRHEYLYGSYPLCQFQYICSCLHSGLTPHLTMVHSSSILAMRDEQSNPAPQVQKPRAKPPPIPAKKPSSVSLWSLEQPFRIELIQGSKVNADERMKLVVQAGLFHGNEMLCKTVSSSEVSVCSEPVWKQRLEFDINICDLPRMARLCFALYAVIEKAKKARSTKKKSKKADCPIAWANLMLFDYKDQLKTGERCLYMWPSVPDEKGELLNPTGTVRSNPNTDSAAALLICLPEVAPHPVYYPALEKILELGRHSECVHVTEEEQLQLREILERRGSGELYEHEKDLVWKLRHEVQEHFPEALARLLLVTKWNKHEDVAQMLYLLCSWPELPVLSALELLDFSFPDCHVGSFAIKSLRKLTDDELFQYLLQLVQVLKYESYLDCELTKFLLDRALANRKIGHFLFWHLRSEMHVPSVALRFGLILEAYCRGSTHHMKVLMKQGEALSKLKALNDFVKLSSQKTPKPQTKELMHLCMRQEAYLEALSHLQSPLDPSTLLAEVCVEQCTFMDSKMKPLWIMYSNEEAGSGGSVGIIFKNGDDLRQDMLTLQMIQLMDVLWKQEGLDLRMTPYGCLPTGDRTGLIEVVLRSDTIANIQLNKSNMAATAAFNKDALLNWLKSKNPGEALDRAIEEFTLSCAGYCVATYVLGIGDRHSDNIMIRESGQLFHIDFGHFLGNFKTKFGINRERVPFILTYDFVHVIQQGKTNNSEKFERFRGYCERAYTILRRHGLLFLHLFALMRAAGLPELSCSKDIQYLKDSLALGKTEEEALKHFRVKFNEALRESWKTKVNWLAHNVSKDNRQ
Sequence (P27986 whole entry partner): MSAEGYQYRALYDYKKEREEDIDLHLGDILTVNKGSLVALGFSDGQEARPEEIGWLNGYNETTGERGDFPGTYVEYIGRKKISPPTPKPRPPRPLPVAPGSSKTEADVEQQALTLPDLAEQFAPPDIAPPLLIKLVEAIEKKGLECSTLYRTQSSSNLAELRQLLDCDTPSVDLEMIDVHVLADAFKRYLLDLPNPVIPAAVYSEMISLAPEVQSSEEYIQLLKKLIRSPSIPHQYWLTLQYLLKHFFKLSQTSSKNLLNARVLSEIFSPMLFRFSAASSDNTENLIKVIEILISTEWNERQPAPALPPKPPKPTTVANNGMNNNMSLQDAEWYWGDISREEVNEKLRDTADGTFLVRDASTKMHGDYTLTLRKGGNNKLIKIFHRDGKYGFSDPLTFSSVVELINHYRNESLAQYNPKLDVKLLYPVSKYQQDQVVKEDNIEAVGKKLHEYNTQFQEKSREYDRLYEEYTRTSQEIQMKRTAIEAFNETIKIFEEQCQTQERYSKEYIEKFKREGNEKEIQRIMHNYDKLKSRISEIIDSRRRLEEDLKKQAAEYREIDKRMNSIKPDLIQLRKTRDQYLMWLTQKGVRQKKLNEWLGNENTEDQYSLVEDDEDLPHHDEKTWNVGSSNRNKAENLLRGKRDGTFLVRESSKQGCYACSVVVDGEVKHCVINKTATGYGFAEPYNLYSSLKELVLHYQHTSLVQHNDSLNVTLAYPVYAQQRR
ASSAY SUMMARY: PI3Kδ scintillation proximity assay (enzyme assay)
SETTINGS: PI3Kδ SPA, 20 μM ATP, 20 μM PIP2, 210 min
REPORTED METRIC: IC50

MOLECULE: Cc1csc2nc([C@H](C)Nc3ncnc(N)c3C#N)c(-c3cccc(F)c3)c(=O)n12 [Example 2]
ENDPOINT VALUE: < 20 nM

MOLECULE: CC(Nc1ncnc(N)c1C#N)c1cc(Cl)c2ccnnc2c1-c1cccc(F)c1 (single isomer, unassigned) [Example 1]
ENDPOINT VALUE: < 20 nM
